Notes on IC50 obtained with KRAS WT (Homo sapiens, UniProt P01116).
Sequence (P01116 1-188 isoform P01116-2): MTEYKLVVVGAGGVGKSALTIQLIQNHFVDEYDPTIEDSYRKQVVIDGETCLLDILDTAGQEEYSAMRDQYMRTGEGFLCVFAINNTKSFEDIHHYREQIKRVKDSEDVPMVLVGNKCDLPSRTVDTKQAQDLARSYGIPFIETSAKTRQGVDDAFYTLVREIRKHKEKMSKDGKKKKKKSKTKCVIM

Look at this molecule and give its reported IC50. CCc1c(F)ccc2cc(O)cc(-c3c(F)c4nc(OCC56CCCN5CC(=C(F)F)C6)nc(N5CCOCC(C)(O)C5)c4c4cn(C)nc34)c12 (stereo not drawn)
≤ 10 nM

Look at this molecule and give its reported IC50. CCc1c(F)ccc2cc(O)cc(-c3cc4nc(OC[C@@]56CCCN5C[C@H](F)C6)nc(N5CCOC[C@@](C)(O)C5)c4c4cn(C)nc34)c12
≤ 10 nM

Look at this molecule and give its reported IC50. CCc1c(F)ccc2cc(O)cc(-c3cc4nc(OCC5CCCCN5C)nc(N5CCCOCC5)c4c4cn(C)nc34)c12 (stereo not drawn)
100 to 10000 nM
